// reported TGI per item
test system: NCI/ADR-RES ovarian; experiment: NCI tumour cell line growth inhibition, 48 h

Observe how each entry below is paired with its result.
1. COC(=O)CC[C@H](Cc1ccccc1)NC(=O)c1csc([C@@H](C[C@H](C(C)C)N(C)C(=O)[C@@H](NC(=O)[C@H]2CCCCN2C)C(C)C)OC(C)=O)n1
> 25 µM
2. CCCC(=O)Nc1cc(/C=C/C(=O)N2CC(CCl)c3c2cc(O)c2[nH]cc(C)c32)n(C)c1 (configuration not stated)
0.00372 µM
3. CC(=O)Nc1c(C)cc2c(nc3n2CCC3O)c1[N+](=O)[O-] (configuration not stated)
> 100 µM

Record summary for Cc1nc2c(=O)n(C)ncc2[nH]1 : reported TGI = > 100 µM

Record summary for CCOc1ccc2nc(NC(=O)C(=O)C(c3cnc4ccccc4n3)[N+](=O)[O-])sc2c1 (configuration not stated) : reported TGI = > 100 µM

Record summary for Oc1ccc2c(c1)-c1c(c3ccccc3n1CCN1CCOCC1)CC2 : reported TGI = 95.3 µM

Record summary for CCNC(=O)O[C@H]1CN[C@H](C#Cc2cc3ncnc(Nc4ccc(OCc5cccc(F)c5)c(Cl)c4)c3s2)C1 : reported TGI = > 25 µM

###

// reported GI50 per item
tested on: A498 renal; experiment: NCI tumour cell line growth inhibition, 48 h

Observe how each entry below is paired with its result.
1) CN(C)CCCNC(=O)c1cc(NC(=O)c2cc(NC(=O)CCNS(=O)(=O)c3ccc4c(c3)C(=O)c3ccccc3C4=O)cn2C)cn1C
> 100 µM
2) OCC#Cc1ccccc1C#CCCCCCC#Cc1ccccc1C#CCO
24.1 µM
3) Cc1cnc(C(=O)NNc2nc3sc4c(c3c(=O)n2C)C(C)CCC4)cn1 (stereo not given)
1.89 µM
4) Cn1cc(-c2ccc(-c3ccc(C4=NC5(CC5)C(=O)N4C[C@@H]4CCN(C(=O)C5CC5)C4)cc3)cc2)cn1
2.16 µM

Shift focus to the following entry.
Record summary for C=C1CC2(OC1=O)C(=O)Nc1ccccc12 (stereo not given) : reported GI50 = 5.91 µM

###

// reported log10 of TGI per item
tested on: HCT-15 colon; assay: NCI tumour cell line growth inhibition, 48 h
Form field - Quantity: TGI; Unit: µM; Scale: log10

Observe how each entry below is paired with its result.
1. C=CC(Cl)(CBr)CCC(Br)C(C)(C)Cl (stereo unspecified)
1.56
2. C=C1C(=O)O[C@H]2[C@H]1CC/C(Cn1cc(-c3ccccc3C(F)(F)F)nn1)=C\CC[C@@]1(C)O[C@@H]21
0.39
3. N#Cc1c(N)nc(Sc2ccccc2N)c(C#N)c1-c1ccc(Cl)cc1
1.74
4. CC12CCC(Br)C(C)(C)C1CC=C1C(=O)OCC1O2 (stereo unspecified)
1.59
5. CCCCCCCc1cc2c3c(nc4ccccc42)C(=O)c2cccnc2-c3n1
0.75
6. CCN1CCN(CC(=O)N2c3cccc4cccc(c34)N(C(=O)CN3CCN(CC)CC3)C2c2cn(-c3ccccc3)nc2-c2cccc([N+](=O)[O-])c2)CC1
0.47
7. O=c1c(-c2ccccc2)coc2cc(OC/C(=N/O)c3ccccc3)ccc12
1.60
8. CN(Cc1cc(C(C)(C)C)cc(Br)c1O)Cc1cc(C(C)(C)C)cc(Br)c1O
1.08

Shift focus to the following entry.
Record summary for Clc1ccc(C(n2cc(Br)cn2)n2cc(Br)cn2)cc1 : reported log10 of TGI = 1.52

###

tested on: OVCAR-5 ovarian; assay: NCI tumour cell line growth inhibition, 48 h
// reported TGI per item

Record summary for CCNC(=O)O[C@H]1CN[C@H](C#Cc2cc3ncnc(Nc4ccc(OCc5cccc(F)c5)c(Cl)c4)c3s2)C1 : reported TGI = > 25 µM

Record summary for Cc1cc(=O)oc2c(CNC(Cc3ccccc3)C(=O)O)c(O)ccc12 (configuration not stated) : reported TGI = > 100 µM

Record summary for CCOc1ccc2nc(NC(=O)C(=O)C(c3cnc4ccccc4n3)[N+](=O)[O-])sc2c1 (configuration not stated) : reported TGI = > 100 µM

###

system: TK-10 renal; assay: NCI tumour cell line growth inhibition, 48 h
Where a SMILES comes first, the peptide text is derived from it. The star is where a group is joined. Boc = CC(C)(C)OC(=O)*
// reported TGI per item

Observe how each entry below is paired with its result.
1) Cc1cc(S(=O)(=O)Nc2nc3ccccc3c(=O)n2N)c(S)cc1Cl
> 100 µM
2) Cc1cc(=O)oc2c(CNC(Cc3ccccc3)C(=O)O)c(O)ccc12 (stereo unspecified)
> 100 µM
3) BrC(c1cccc2ccccc12)c1cccc2ccccc12
> 100 µM

The molecule O=C(OC[C@H]1O[C@H](OC(=O)c2cc(O)c(O)c(OC(=O)c3cc(O)c(O)c(O)c3)c2)[C@H](OC(=O)c2cc(O)c(O)c(OC(=O)c3cc(O)c(O)c(O)c3)c2)[C@@H](OC(=O)c2cc(O)c(O)c(OC(=O)c3cc(O)c(O)c(O)c3)c2)[C@@H]1OC(=O)c1cc(O)c(O)c(OC(=O)c2cc(O)c(O)c(O)c2)c1)c1cc(O)c(O)c(OC(=O)c2cc(O)c(O)c(O)c2)c1 on TK-10 renal: TGI was > 25 µM

The molecule CCCCCCCCCCCCC(O)[C@H]1CC[C@H](C(O)CCCCCC(=O)CCCCC2CC(C(C)=O)C(=O)O2)O1 (stereo partly specified) on TK-10 renal: TGI was > 68.6 µM

The molecule CC(C)(c1ccccc1)c1ccc(OC#N)cc1 on TK-10 renal: TGI was > 100 µM

The molecule CN(C)CCNC(=O)c1ccc(NC(=O)c2nc([N+](=O)[O-])cn2C)cc1 on TK-10 renal: TGI was > 100 µM

The molecule C=CCC1C(=O)CC2(C)CC(=O)C(CC=C)C12C (stereo unspecified) on TK-10 renal: TGI was > 100 µM

The molecule Cc1cc(C)cc(NC(N)=S)c1 on TK-10 renal: TGI was > 100 µM

The molecule CCCCn1c2c(n(CCCC)c1=S)-c1c(n(CCCC)c(=S)n1CCCC)SSc1c(n(CCCC)c(=S)n1CCCC)-c1c(n(CCCC)c(=S)n1CCCC)SSc1c(n(CCCC)c(=S)n1CCCC)-c1c(n(CCCC)c(=S)n1CCCC)SS2 on TK-10 renal: TGI was > 50 µM

The molecule CCCCCCCCCCNC(=O)CCC(NC(=O)c1ccc(N(C)Cc2cnc3nc(N)nc(N)c3n2)cc1)C(=O)NCCCCCCCCCC (stereo unspecified) on TK-10 renal: TGI was > 92.7 µM

The molecule O=C1CSC(c2cccc([N+](=O)[O-])c2)N1c1ccc(-n2c(-c3ccccc3)nc3ccccc3c2=O)cc1 (stereo unspecified) on TK-10 renal: TGI was > 100 µM

The molecule COc1ccc(-c2cc3[nH]nc(N)c3c(=O)o2)cc1 on TK-10 renal: TGI was > 100 µM

The molecule COC(=O)C(Cc1c[nH]c2ccccc12)NC(=O)C(Cc1c[nH]c2ccccc12)NC(=O)C(Cc1c[nH]c2ccccc12)NC(=O)C(Cc1c[nH]c2ccccc12)NC(=O)C(Cc1c[nH]c2ccccc12)NC(=O)C(Cc1c[nH]c2ccccc12)NC(=O)C(Cc1c[nH]c2ccccc12)NC(=O)C(Cc1c[nH]c2ccccc12)NC(=O)OC(C)(C)C (stereo unspecified) (Boc-WWWWWWWW-OMe; configuration not given here) on TK-10 renal: TGI was > 100 µM

The molecule C#CCOc1cccc(Nc2ncnc3cc(NC(=O)CCl)ccc23)c1 on TK-10 renal: TGI was 19.3 µM

The molecule N#CC1(C#N)C(C#N)(C#N)C12CCCCCC2 on TK-10 renal: TGI was 30.5 µM

The molecule Cc1ccccc1S(=O)(=O)Nn1cnc2ccc(S(=O)(=O)Nc3ccc(Cl)cc3)cc2c1=O on TK-10 renal: TGI was > 100 µM

The molecule CC(=O)OCc1ccc2oc(=O)c(C(=O)Oc3ccccc3)cc2c1 on TK-10 renal: TGI was 62.8 µM

The molecule CCOc1ccc2nc(NC(=O)C(=O)C(c3cnc4ccccc4n3)[N+](=O)[O-])sc2c1 (stereo unspecified) on TK-10 renal: TGI was > 100 µM

The molecule C=C1C(=O)O[C@H]2[C@H]1CC/C(Cn1cc(-c3ccccc3C(F)(F)F)nn1)=C\CC[C@@]1(C)O[C@@H]21 on TK-10 renal: TGI was 3.2 µM

The molecule Cn1cc(-c2ccc(-c3ccc(C4=NC5(CC5)C(=O)N4C[C@@H]4CCN(C(=O)C5CC5)C4)cc3)cc2)cn1 on TK-10 renal: TGI was 81.2 µM

###

tested on: COLO 205 colon; experiment: NCI tumour cell line growth inhibition, 48 h
// reported TGI per item

1. O=C1C(=Cc2c(O)cc(O)cc2O)C(=O)c2ccccc21
> 56 µM

Record summary for CC(C)=CC1=C2C3=C(C(=O)C4(O)Oc5c(C)c6c7c(c5OC24C)[C@@H](C)CC[C@@H]7[C@@H](C)C[C@H]6C=C(C)C)C(C)CCC3C(C)C1 (stereo not given in full) : reported TGI = > 100 µM

Record summary for CC(=O)C1=C(O)CC2CC3c4[nH]c5ccccc5c4CCN3CC2C1 (stereo not given) : reported TGI = > 100 µM

Record summary for CCOC(=O)c1ccc(N=c2sc3ccccc3nc2Nc2ccc(C(=O)OCC)cc2)cc1 : reported TGI = > 100 µM

Record summary for COc1ccc2c(c1)CCc1c-2n(CCN2CCCCC2)c2ccc(OC)cc12 : reported TGI = > 100 µM
